The values you see were collected from the supplement of paper PMC11908140.

B1: library; numbered along this chain (parent)
chain: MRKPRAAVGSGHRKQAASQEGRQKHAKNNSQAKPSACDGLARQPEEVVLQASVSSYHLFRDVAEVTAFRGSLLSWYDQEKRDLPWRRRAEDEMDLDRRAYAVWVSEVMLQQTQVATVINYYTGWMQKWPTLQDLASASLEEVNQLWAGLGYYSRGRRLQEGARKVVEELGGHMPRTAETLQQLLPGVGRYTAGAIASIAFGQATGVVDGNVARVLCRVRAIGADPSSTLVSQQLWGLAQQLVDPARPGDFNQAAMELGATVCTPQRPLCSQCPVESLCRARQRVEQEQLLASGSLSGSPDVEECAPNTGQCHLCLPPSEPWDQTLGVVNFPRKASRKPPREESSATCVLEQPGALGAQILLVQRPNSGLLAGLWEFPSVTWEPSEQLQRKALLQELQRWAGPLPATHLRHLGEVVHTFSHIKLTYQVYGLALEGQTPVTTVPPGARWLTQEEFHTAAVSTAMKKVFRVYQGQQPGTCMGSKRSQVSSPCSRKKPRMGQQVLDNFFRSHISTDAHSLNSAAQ

variants of: B1; assay: 8OG:A repair function score (normalized; synonymous = 0, nonsense = -1) (normalized log-likelihood score); higher = more repair activity (WT-like); settings: with 8OG:A DNA repair reporter (GFP) in HEK-293 MUTYH KO cells;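 also: cells sorted at 72 h after reporter transfection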
QUANTITY_MEASURED: 8OG:A repair function score

Here are 2 variants together with their reported answers.
E275T: 0.0286
H407D: 0.0493

Documented 8OG:A repair function score of S292W : -0.0286

Documented 8OG:A repair function score of A137G : -0.176

Documented 8OG:A repair function score of A6G : 0.0165

Documented 8OG:A repair function score of G186E : -0.989

Documented 8OG:A repair function score of L315I : -0.0865
